List of log10 IC50 values.
System under test: PTGER4 (EP4) (Homo sapiens, UniProt P35408)
Construct: host or cells: HEK 293 (PathHunter PTGER4 b-arrestin cell line)
Sequence (P35408 whole entry): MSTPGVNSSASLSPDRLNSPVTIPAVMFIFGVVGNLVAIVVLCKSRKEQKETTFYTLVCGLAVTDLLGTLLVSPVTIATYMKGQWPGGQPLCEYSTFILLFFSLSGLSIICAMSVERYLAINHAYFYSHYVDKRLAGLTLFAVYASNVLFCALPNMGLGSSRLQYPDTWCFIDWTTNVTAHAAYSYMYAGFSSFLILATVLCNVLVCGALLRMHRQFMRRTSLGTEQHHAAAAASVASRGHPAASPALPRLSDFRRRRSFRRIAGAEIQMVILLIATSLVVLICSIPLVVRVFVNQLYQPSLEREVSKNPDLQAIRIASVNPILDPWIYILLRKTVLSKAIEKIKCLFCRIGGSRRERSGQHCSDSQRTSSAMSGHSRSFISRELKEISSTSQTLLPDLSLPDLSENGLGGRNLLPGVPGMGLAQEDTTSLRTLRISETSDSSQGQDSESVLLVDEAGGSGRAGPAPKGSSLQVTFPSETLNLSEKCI
Experimental protocol: hEP4 b-arrestin assay (PathHunter HEK 293 PTGER4 b-arrestin cells)
Assay type: cell-based
Details: antagonistic activity, beta-arrestin assay; read-out: hEP4 b-arr IC50
Note: values are log10 of IC50 expressed in nM.

Completed entries (count: 2):
Smiles record | log10 IC50
Cc1sc2c(C)cc(F)cc2c1CCNc1cc(-c2ccc(CC(=O)O)c(OC3CC3)c2)ncn1 | 2.00
CSc1cc(-c2cc(NCCc3c(C)oc4c(C)cc(F)cc34)ncn2)ccc1C(=O)O | 2.59

For "CCOc1cc(-c2cc(NCCc3c(C)sc4c(C)cc(F)cc34)ncn2)sc1-c1noc(=O)[nH]1" , what is its reported log10 IC50?
0.48

For "COc1ccc(F)c2c(CCNc3cc(-c4ccc(C(=O)O)c(OC5CC5)c4)ncn3)c(C)sc12" , what is its reported log10 IC50?
1.90

For "CCOc1cc(-c2cc(NCCc3c(C)sc4c(C)cc(F)cc34)ncn2)ccc1C(=O)O" , what is its reported log10 IC50?
1.67

For "Cc1sc2c(C)cc(F)cc2c1CCNc1cc(-c2cc(OC(F)F)c(CC(=O)O)s2)ncn1" , what is its reported log10 IC50?
2.61

For "CCOc1cc(-c2cc(NCCc3c(Cl)sc4ccccc34)ncn2)ccc1C(=O)O" , what is its reported log10 IC50?
3.63

For "Cc1oc2c(Cl)cccc2c1CCNc1cc(-c2ccc(C(=O)O)c(OC3CCC3)c2)ncn1" , what is its reported log10 IC50?
2.41

* * *

System under test: UniProtKB P35408
Experimental protocol: hEP4 b-arrestin assay (PathHunter HEK 293 PTGER4 b-arrestin cells)
Details: antagonistic activity, beta-arrestin assay; read-out: hEP4 b-arr IC50
Readout kind: IC50
I'd appreciate it if you included the unit after the number.

Completed entries (count: 6):
Smiles record | System under test | IC50
CCOc1cc(-c2cc(NCCc3c(C)oc4c(OC)ccc(F)c34)ncn2)sc1C(=O)O | UniProtKB P35408 | 12 nM
CCOc1cc(-c2cc(NCCc3c(C)oc4c(Cl)cc(Cl)cc34)ncn2)ccc1C(=O)O | UniProtKB P35408 | 958 nM
CCOc1cc(-c2cc(NCCc3c(C)sc4c(C)ccc(F)c34)ncn2)ccc1CC(=O)O | UniProtKB P35408 | 167 nM
CCOc1cc(-c2cc(NCCc3c(C#N)sc4c(C)cc(F)cc34)ncn2)ccc1CC(=O)O | UniProtKB P35408 | 161 nM
CCOc1c(CC(=O)O)ccc(-c2cc(NCCc3c(C)sc4c(C)cc(F)cc34)ncn2)c1F | UniProtKB P35408 | 234 nM
CCOc1cc(-c2cc(NCCc3c(C)sc4c(C)cc(F)cc34)ncn2)ccc1NC=O | UniProtKB P35408 | 135 nM

For "CCOc1cc(-c2cc(NCCc3c(C)sc4c(C)cccc34)ncn2)ccc1OCC(=O)O" , what is its reported IC50?
83 nM

For "CCCc1cc(-c2cc(NCCc3c(C)sc4c(C)cc(F)cc34)ncn2)ccc1C1(C(=O)O)CC1" , what is its reported IC50?
143 nM

For "CCOc1cc(-c2cc(NCCc3c(C)sc4c(C)cc(F)cc34)ncn2)ccc1-c1cc(O)no1" , what is its reported IC50?
100 nM

For "CCOc1cc(-c2cc(NCCc3c(Cl)sc4c(C)cc(F)cc34)ncn2)ccc1C(=O)O" , what is its reported IC50?
625 nM

For "COc1cc(F)c(F)c2c(CCNc3cc(-c4cc(F)c(C(=O)O)c(OC5CCC5)c4)ncn3)c(C)oc12" , what is its reported IC50?
363 nM
